Where these numbers come from: patent US4252984A

Target: β1 -adrenergic receptors (Rattus norvegicus, UniProt P18090)
Construct: from tissue; host or cells: isolated rat auricles (atria)
Sequence (P18090 whole entry): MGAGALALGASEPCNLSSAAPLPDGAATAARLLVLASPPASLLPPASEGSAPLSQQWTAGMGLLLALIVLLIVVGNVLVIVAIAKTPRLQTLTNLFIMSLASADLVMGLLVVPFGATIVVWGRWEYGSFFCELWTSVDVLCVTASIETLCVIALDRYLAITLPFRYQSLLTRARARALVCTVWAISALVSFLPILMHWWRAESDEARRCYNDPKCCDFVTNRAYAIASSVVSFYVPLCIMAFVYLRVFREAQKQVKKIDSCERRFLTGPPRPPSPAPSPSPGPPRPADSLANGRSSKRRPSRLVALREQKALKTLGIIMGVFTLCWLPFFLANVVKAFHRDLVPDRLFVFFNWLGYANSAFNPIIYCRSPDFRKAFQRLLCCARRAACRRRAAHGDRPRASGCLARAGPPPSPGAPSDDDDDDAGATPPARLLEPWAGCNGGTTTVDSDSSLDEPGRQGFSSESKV
Test: Studies on isolated organs: antagonism of isoprenaline-induced tachycardia and increase in contractile force in isolated rat auricles (pA2)
Set-up: species or system rats
Settings: isoprenaline tachycardia, 31° C.
Documented pA2, effect on chronotropism across a set of compounds
Reply with just the number.

- compound: "CC(CCc1ccc(F)cc1)NCC(O)COc1ccc(CCOCC2CCC2)cc1 (centres unmarked) [SL E.059]"
  target: "β1 -adrenergic receptors (Rattus norvegicus, UniProt P18090)"
  pA2, effect on chronotropism: 5.54
- compound: "COc1ccc(CCNCC(O)COc2ccc(CCOCC3CCC3)cc2)cc1OC (centres unmarked) [SL E.111]"
  target: "β1 -adrenergic receptors (Rattus norvegicus, UniProt P18090)"
  pA2, effect on chronotropism: 7.75
- compound: "CC(C)NCC(O)COc1ccc(CCOCC2CCCCC2)cc1 (centres unmarked) [SL D.268]"
  target: "β1 -adrenergic receptors (Rattus norvegicus, UniProt P18090)"
  pA2, effect on chronotropism: 6.84

# pA2, effect on chronotropism of CC(CC#N)NCC(O)COc1ccc(CCOCC2CCC2)cc1 (centres unmarked) [SL E.024] = 6.47

# pA2, effect on chronotropism of CC(C)NCC(O)COc1ccc(CCOCC2CCCC2)cc1 (centres unmarked) [SL D.291] = 6.89
